# MEASURED_TARGET: T1, Fusion protein of extracellular domain of cynomolgus monkey TIGIT and mouse IgG2a Fc fragment (cynomolgus … (cynomolgus monkey))
# T1 construct: The entry includes the signal peptide (limits not recoverable) and the mouse IgG2a Fc
# T1 sequence (chain, as listed by the source limits assumed): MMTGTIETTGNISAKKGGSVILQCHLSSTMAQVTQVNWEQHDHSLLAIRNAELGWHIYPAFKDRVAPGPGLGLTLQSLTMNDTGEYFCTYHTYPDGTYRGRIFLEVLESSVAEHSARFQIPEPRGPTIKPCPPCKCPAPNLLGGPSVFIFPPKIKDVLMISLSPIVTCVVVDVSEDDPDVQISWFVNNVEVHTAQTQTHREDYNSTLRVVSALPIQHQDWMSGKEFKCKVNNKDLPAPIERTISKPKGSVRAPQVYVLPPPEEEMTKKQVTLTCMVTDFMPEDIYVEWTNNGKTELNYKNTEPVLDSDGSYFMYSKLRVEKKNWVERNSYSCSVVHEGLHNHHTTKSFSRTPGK
# EXPERIMENTAL_DETAILS: ELISA, cynomolgus monkey TIGIT ECD-mFc
// reported EC50 for each item listed
MEASURE: EC50 (nM)

INSERT INTO assay_data (binder, meas_value) VALUES
  ('TIGIT-005-H2L1d (antibody, V domains shown, Humanized anti-TIGIT antibody with NG-site mutation in VL) VH: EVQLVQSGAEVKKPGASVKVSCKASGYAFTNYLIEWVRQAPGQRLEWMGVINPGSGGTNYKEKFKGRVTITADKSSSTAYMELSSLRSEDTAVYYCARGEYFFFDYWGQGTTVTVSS VL: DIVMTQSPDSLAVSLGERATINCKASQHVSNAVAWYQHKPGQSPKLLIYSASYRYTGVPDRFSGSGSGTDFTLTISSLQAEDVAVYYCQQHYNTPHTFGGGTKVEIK', 0.0395),
  ('TIGIT-002-H4L3 (antibody, V domains shown, Humanized anti-TIGIT antibody) VH: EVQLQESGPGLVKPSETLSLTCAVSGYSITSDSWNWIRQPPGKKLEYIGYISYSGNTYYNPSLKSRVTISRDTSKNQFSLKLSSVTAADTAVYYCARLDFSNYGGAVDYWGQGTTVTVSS VL: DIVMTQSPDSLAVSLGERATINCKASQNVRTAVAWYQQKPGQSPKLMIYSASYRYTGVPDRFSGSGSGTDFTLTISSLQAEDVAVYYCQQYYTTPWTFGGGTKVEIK', 0.0427),
  ('TIGIT-070-H1L1 (antibody, V domains shown, Humanized anti-TIGIT antibody) VH: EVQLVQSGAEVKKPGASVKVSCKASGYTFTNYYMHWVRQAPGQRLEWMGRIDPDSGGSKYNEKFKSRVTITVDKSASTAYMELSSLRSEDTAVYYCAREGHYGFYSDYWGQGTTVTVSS VL: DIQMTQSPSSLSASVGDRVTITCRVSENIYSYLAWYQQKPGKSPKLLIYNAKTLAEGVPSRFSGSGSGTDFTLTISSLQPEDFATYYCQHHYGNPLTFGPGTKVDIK', 0.0347),
  ('TIGIT-006-H5L3 (antibody, V domains shown, Humanized anti-TIGIT antibody) VH: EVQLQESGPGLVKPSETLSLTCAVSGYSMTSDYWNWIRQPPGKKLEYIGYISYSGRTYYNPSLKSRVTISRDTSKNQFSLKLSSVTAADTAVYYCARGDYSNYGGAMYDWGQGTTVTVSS VL: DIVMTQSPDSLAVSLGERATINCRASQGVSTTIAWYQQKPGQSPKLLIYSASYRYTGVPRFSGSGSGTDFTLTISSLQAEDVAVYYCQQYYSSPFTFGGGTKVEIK', 0.0406);

Values from patent US20240343803A1
